test system: Microsporum gypseum; test: In-vitro antifungal spectrum and MIC, clinical isolates; type: cell-based

compound | Susceptibility category
CCC(C)n1ncn(-c2ccc(N3CCN(c4ccc(OCC5COC(Cn6cncn6)(c6ccc(Cl)cc6Cl)O5)cc4)CC3)cc2)c1=O (stereo not shown) | Active
C[C@@H]1[C@H](O)[C@@H](C)/C=C/C=C/C=C/C=C/C=C/C=C/C=C/[C@H](O[C@@H]2O[C@H](C)[C@@H](O)[C@H](N)[C@@H]2O)C[C@@H]2O[C@](O)(C[C@@H](O)C[C@@H](O)[C@H](O)CC[C@@H](O)C[C@@H](O)CC(=O)O[C@H]1C)C[C@H](O)[C@H]2C(=O)O | Active
C[C@@H](c1ncncc1F)[C@](O)(Cn1cncn1)c1ccc(F)cc1F | Active

###

tested on: Aspergillus oryzae; test: In-vitro antifungal spectrum and MIC, clinical isolates; type: cell-based

compound.structure.string | Susceptibility category
C[C@@H](c1ncncc1F)[C@](O)(Cn1cncn1)c1ccc(F)cc1F | Intermediate
C[C@@H]1[C@H](O)[C@@H](C)/C=C/C=C/C=C/C=C/C=C/C=C/C=C/[C@H](O[C@@H]2O[C@H](C)[C@@H](O)[C@H](N)[C@@H]2O)C[C@@H]2O[C@](O)(C[C@@H](O)C[C@@H](O)[C@H](O)CC[C@@H](O)C[C@@H](O)CC(=O)O[C@H]1C)C[C@H](O)[C@H]2C(=O)O | Intermediate

meta.source: patent US8883748B2
